- System: Haemophilus parainfluenzae
- experiment notes: growth AUC normalised to DMSO control (fraction of control); higher = less growth inhibition, active = hit call of the paper;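 active = AUC significantly below DMSO controls by Student t-fit with adjusted P under 0.01; inactive = not significantly reduced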
- condition summary: 20 µM
Where a name gives a salt, the structure may show the parent alone.
Hello, when you answer, please use one of the following outcomes: active, inactive

Look over these answered cases.
CC(=O)Nc1ccc(OCC(O)CNC(C)C)cc1 (configuration not stated) [Practolol]	inactive
CN(C)[C@@H]1C(=O)C(C(N)=O)=C(O)[C@@]2(O)C(=O)C3=C(O)c4c(O)cccc4[C@@](C)(O)[C@H]3[C@H](O)[C@@H]12 [Oxytetracycline dihydrate]	active
CC(=O)Oc1ccccc1C(=O)O [Acetylsalicylic acid]	inactive
CC(CN(C)C)CN1c2ccccc2CCc2ccccc21 (configuration not stated) [Trimipramine maleate salt]	inactive

Q: What did the test return for Cc1cc(CC(=O)O)n(C)c1C(=O)c1ccc(Cl)cc1 [Zomepirac sodium salt] ?
Ans: inactive
